Data origin: ChEMBL document CHEMBL4196122

Molecular target: Hemoglobin HbA (Homo sapiens) (UniProt P69905+P68871)
Sequence (P68871 2-147 partner limits assumed): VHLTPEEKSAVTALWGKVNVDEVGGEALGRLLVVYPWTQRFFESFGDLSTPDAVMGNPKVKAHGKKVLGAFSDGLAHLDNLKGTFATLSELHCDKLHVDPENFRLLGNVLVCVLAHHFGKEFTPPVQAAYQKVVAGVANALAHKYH
Sequence (P69905 2-142 limits assumed): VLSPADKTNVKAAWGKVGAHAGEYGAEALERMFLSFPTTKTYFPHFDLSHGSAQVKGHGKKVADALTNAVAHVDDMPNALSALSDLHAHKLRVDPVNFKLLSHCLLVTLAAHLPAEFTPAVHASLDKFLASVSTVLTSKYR
Experiment: Binding affinity to hemoglobin (unknown origin) assessed as increase in release of carbon monooxide from carboxyhemoglobin by measuring half life of carboxyhemoglobin at 5:1 compound/Hb tetramer ratio incubated for 1 hr measured every 15 mins for 90 mins (reference value: 80 +/- 0.3 min)
Format: protein-complex assay
Readout Name: T1/2 (h)

Smiles Code: Cc1cc(C)cc(C(=O)N[C@H](Cc2ccc(-c3c(C)noc3C)cc2)C(=O)N[C@@H](Cc2c[nH]c3ccccc23)C(=O)O)c1
Output Unit: h
T1/2: 1.2
//
Smiles Code: Cc1cc(C)cc(C(=O)N[C@H](Cc2ccc(-c3cncnc3)cc2)C(=O)N[C@@H](Cc2c[nH]c3ccccc23)C(=O)O)c1
Output Unit: h
T1/2: 1.33
//
Smiles Code: Cc1cc(C)cc(C(=O)N[C@H](Cc2ccc(-c3ccccc3)cc2)C(=O)N[C@@H](Cc2c[nH]c3ccccc23)C(=O)O)c1
Output Unit: h
T1/2: 1.15
//
Smiles Code: Cc1cc(C)cc(C(=O)N(C)[C@H](Cc2ccc(-c3ccccc3)cc2)C(=O)N[C@@H](Cc2c[nH]c3ccccc23)C(=O)O)c1
Output Unit: h
T1/2: 1.15
//
Smiles Code: Cc1cc(C)cc(C(=O)N[C@H](Cc2ccc(-c3c(C(=O)O)noc3C)cc2)C(=O)N[C@@H](Cc2c[nH]c3ccccc23)C(=O)O)c1
Output Unit: h
T1/2: 1.3
//
Smiles Code: Cc1cc(C)cc(C(=O)N[C@H](Cc2ccc(-c3cnn(C)c3)cc2)C(=O)N[C@@H](Cc2c[nH]c3ccccc23)C(=O)O)c1
Output Unit: h
T1/2: 1.23
//
Smiles Code: Cc1cc(C)cc(C(=O)N[C@H](Cc2ccc(-c3c(CO)noc3C)cc2)C(=O)N[C@@H](Cc2c[nH]c3ccccc23)C(=O)O)c1
Output Unit: h
T1/2: 1.17
